# TARGET_OF_ASSAY: mutant HIV PR (Mutant 8) (Human immunodeficiency virus type 1 group M subtype B, UniProt P04585)
# TEST_NAME: HIV PR inhibition assay, Mutant 8
# CONDITION_NOTES: read-out: Ki Mutant 8; recombinant mutant HIV PR, fluorogenic substrate, pH 6.5
pKi: −log10 of the molar value.
PROPERTY_NAME: pKi

Answered examples (2):
COMPOUND	pKi
CC(C)CN(CC(O)C(Cc1ccccc1)NC(=O)OC1COC2OCCC12)S(=O)(=O)c1ccc2c(c1)C(=CNCC1CC1)C(=O)N2 (stereo not drawn)	> 9.52
CC(C)CCNC=C1C(=O)Nc2ccc(S(=O)(=O)N(CC(C)C)CC(O)C(Cc3ccccc3)NC(=O)OC3COC4OCCC34)cc21 (stereo not drawn)	> 9.52

Suppose we examine the compound CC(C)CN(C=C1C(=O)Nc2ccc(S(=O)(=O)N(CC(C)C)CC(O)C(Cc3ccccc3)NC(=O)OC3COC4OCCC34)cc21)CC(C)C (stereo not drawn) ; what pKi value has been reported?
> 9.52

###

# TARGET_OF_ASSAY: wild type HIV PR (Human immunodeficiency virus type 1 group M subtype B, UniProt P04585)
# Construct: Recombinant wild type and mutant HIV PRs were expressed using pET21 vector (Novagen) in E. coli cells
# TEST_NAME: HIV PR inhibition assay, wild type
PROPERTY_NAME: Ki

Example compounds with recorded Ki:
COMPOUND	Ki
CC(C)CN(CC(O)C(Cc1ccccc1)NC(=O)OC1COC2OCCC12)S(=O)(=O)c1ccc2c(c1)C(=CNCC(F)(F)C(F)(F)C(F)(F)F)C(=O)N2 (stereo not drawn)	< 0.1 nM
CCCCN(C=C1C(=O)Nc2ccc(S(=O)(=O)N(CC(C)C)CC(O)C(Cc3ccccc3)NC(=O)OC3COC4OCCC34)cc21)CC (stereo not drawn)	< 0.1 nM

Pending compound:
What measured Ki goes with CC(C)CN(CC(O)C(Cc1ccccc1)NC(=O)OC1COC2OCCC12)S(=O)(=O)c1ccc2c(c1)C(=CNCCCCc1ccccc1)C(=O)N2 (stereo not drawn) ?
< 0.1 nM

###

Collected Ki values appear next to each entry.
# TARGET_OF_ASSAY: wild type HIV PR (Human immunodeficiency virus type 1 group M subtype B)
# Construct: Recombinant wild type and mutant HIV PRs were expressed using pET21 vector (Novagen) in E. coli cells
# TEST_NAME: HIV PR inhibition assay, wild type

Past entries and their recorded results:
COMPOUND	Ki
CC(C)CN(C=C1C(=O)Nc2ccc(S(=O)(=O)N(CC(C)C)CC(O)C(Cc3ccccc3)NC(=O)OC3COC4OCCC34)cc21)CC(C)C (stereo not drawn)	< 0.1 nM
CCCN(C=C1C(=O)Nc2ccc(S(=O)(=O)N(CC(C)C)CC(O)C(Cc3ccccc3)NC(=O)OC3COC4OCCC34)cc21)CC (stereo not drawn)	< 0.1 nM
CCNC(C)=C1C(=O)Nc2ccc(S(=O)(=O)N(CC(C)C)CC(O)C(Cc3ccccc3)NC(=O)OC3COC4OCCC34)cc21 (stereo not drawn)	< 0.1 nM
CC(C)CN(CC(O)C(Cc1ccccc1)NC(=O)OC1COC2OCCC12)S(=O)(=O)c1ccc2c(c1)C(=CNCC1CC1)C(=O)N2 (stereo not drawn)	0.11 nM
CC(C)CNC=C1C(=O)Nc2ccc(S(=O)(=O)N(CC(C)C)CC(O)C(Cc3ccccc3)NC(=O)OC3COC4OCCC34)cc21 (stereo not drawn)	< 0.1 nM

Tell me the measured Ki of CC(C)CN(CC(O)C(Cc1ccccc1)NC(=O)OC1COC2OCCC12)S(=O)(=O)c1ccc2c(c1)C(=CNC1CCC1)C(=O)N2 (stereo not drawn) , please.
< 0.1 nM

###

# TARGET_OF_ASSAY: mutant HIV PR (Mutant 10) (Human immunodeficiency virus type 1 group M subtype B, UniProt P04585)
# TEST_NAME: HIV PR inhibition assay, Mutant 10
# CONDITION_NOTES: read-out: Ki Mutant 10; recombinant mutant HIV PR, fluorogenic substrate, pH 6.5
PROPERTY_NAME: pKi
In simple prose, pKi is minus the logarithm base ten of a concentration in moles per litre.

Reference set, count: 3
COMPOUND	pKi
CCOC(=O)CN(C=C1C(=O)Nc2ccc(S(=O)(=O)N(CC(C)C)CC(O)C(Cc3ccccc3)NC(=O)OC3COC4OCCC34)cc21)Cc1ccccc1 (stereo not drawn)	8.72
CCOC(=O)C(NC=C1C(=O)Nc2ccc(S(=O)(=O)N(CC(C)C)CC(O)C(Cc3ccccc3)NC(=O)OC3COC4OCCC34)cc21)C(C)C (stereo not drawn)	8.51
CC(NCC(F)(F)F)=C1C(=O)Nc2ccc(S(=O)(=O)N(CC(C)C)CC(O)C(Cc3ccccc3)NC(=O)OC3COC4OCCC34)cc21 (stereo not drawn)	8.51

Any idea what pKi was measured for CC(C)CC(C)NC=C1C(=O)Nc2ccc(S(=O)(=O)N(CC(C)C)CC(O)C(Cc3ccccc3)NC(=O)OC3COC4OCCC34)cc21 (stereo not drawn) ?
8.89

Item under review: CC(C)CN(C=C1C(=O)Nc2ccc(S(=O)(=O)N(CC(C)C)CC(O)C(Cc3ccccc3)NC(=O)OC3COC4OCCC34)cc21)CC(C)C (stereo not drawn) . Reported pKi?
8.54

# lookup: pKi of CCc1cccc(NC=C2C(=O)Nc3ccc(S(=O)(=O)N(CC(C)C)CC(O)C(Cc4ccccc4)NC(=O)OC4COC5OCCC45)cc32)n1 (stereo not drawn)
8.19

Bench note: what pKi did CC(C)CN(CC(O)C(Cc1ccccc1)NC(=O)OC1COC2OCCC12)S(=O)(=O)c1ccc2c(c1)C(=CNC1CCC1)C(=O)N2 (stereo not drawn) show?
8.92

###

Examples of compounds with documented pKi follow.
# TARGET_OF_ASSAY: mutant HIV PR (Mutant 9) (Human immunodeficiency virus type 1 group M subtype B, UniProt P04585)
# TEST_NAME: HIV PR inhibition assay, Mutant 9
# Format: biochemical
# CONDITION_NOTES: read-out: Ki Mutant 9; recombinant mutant HIV PR, fluorogenic substrate, pH 6.5
# Procedure: Expression and purification of WT and mutant HIV PR. Recombinant wild type and mutant HIV PRs were expressed using pET21 vector (Novagen) in E. coli cells, and purified and refolded as described previously (Gulnik et al, 1995). […] Inhibition constants were determined using the fluorogenic substrate ArgGlu(EDANS)[…]DABCYL)Arg (Amichem, USA). […] The initial rate of hydrolysis was calculated by first-degree polynomial fit using SoftMAX operating software. […]
Kindly note that pKi refers to -log10 of the concentration in mol/L and answer with the value alone.

COMPOUND	pKi
CC(C)CN(CC(O)C(Cc1ccccc1)NC(=O)OC1COC2OCCC12)S(=O)(=O)c1ccc2c(c1)C(=CNCC1CC1)C(=O)N2 (centres unmarked) [Compound 101]	9.72
CCCCNC=C1C(=O)Nc2ccc(S(=O)(=O)N(CC(C)C)CC(O)C(Cc3ccccc3)NC(=O)OC3COC4OCCC34)cc21 (centres unmarked) [Compound 57]	9.72
CCOC(=O)C(NC=C1C(=O)Nc2ccc(S(=O)(=O)N(CC(C)C)CC(O)C(Cc3ccccc3)NC(=O)OC3COC4OCCC34)cc21)C(C)C (centres unmarked) [Compound 133]	9.40

# ---- query compound ----
What does the data say about its pKi? Entry: CC(C)CNC=C1C(=O)Nc2ccc(S(=O)(=O)N(CC(C)C)CC(O)C(Cc3ccccc3)NC(=O)OC3COC4OCCC34)cc21 (centres unmarked) [Compound 60]
9.82

###

# TARGET_OF_ASSAY: mutant HIV PR (Mutant 8) (Human immunodeficiency virus type 1 group M subtype B, UniProt P04585)
# TEST_NAME: HIV PR inhibition assay, Mutant 8
# CONDITION_NOTES: read-out: Ki Mutant 8; recombinant mutant HIV PR, fluorogenic substrate, pH 6.5
pKi: −log10 of the molar value.
Items are presented alongside their recorded pKi.

Completed entries (count: 2):
MOLECULE	pKi
CC(C)CC(C)NC=C1C(=O)Nc2ccc(S(=O)(=O)N(CC(C)C)CC(O)C(Cc3ccccc3)NC(=O)OC3COC4OCCC34)cc21 (stereo not drawn)	> 9.52
CCCN(C=C1C(=O)Nc2ccc(S(=O)(=O)N(CC(C)C)CC(O)C(Cc3ccccc3)NC(=O)OC3COC4OCCC34)cc21)CC (stereo not drawn)	> 9.52

Kindly consider the entry below.
I would be grateful if you could share the reported pKi for CC(C)CN(CC(O)C(Cc1ccccc1)NC(=O)OC1COC2OCCC12)S(=O)(=O)c1ccc2c(c1)C(=CNC1CCC1)C(=O)N2 (stereo not drawn) .
> 9.52

###

# TARGET_OF_ASSAY: mutant HIV PR (Mutant 8) (Human immunodeficiency virus type 1 group M subtype B, UniProt P04585)
# TEST_NAME: HIV PR inhibition assay, Mutant 8
# CONDITION_NOTES: read-out: Ki Mutant 8; recombinant mutant HIV PR, fluorogenic substrate, pH 6.5
pKi: −log10 of the molar value.
PROPERTY_NAME: pKi

Here's what some known entries look like.
COMPOUND	PROPERTY_NAME	EXPERIMENTAL_RESULT
CCCC(C)NC=C1C(=O)Nc2ccc(S(=O)(=O)N(CC(C)C)CC(O)C(Cc3ccccc3)NC(=O)OC3COC4OCCC34)cc21 (stereo not drawn) [Compound 108]	pKi	> 9.52
CC(C)CNC=C1C(=O)Nc2ccc(S(=O)(=O)N(CC(C)C)CC(O)C(Cc3ccccc3)NC(=O)OC3COC4OCCC34)cc21 (stereo not drawn) [Compound 60]	pKi	> 9.52

Bench note: what pKi did CNC(C)=C1C(=O)Nc2ccc(S(=O)(=O)N(CC(C)C)CC(O)C(Cc3ccccc3)NC(=O)OC3COC4OCCC34)cc21 (stereo not drawn) [Compound 41] show?
> 9.52

The reported numbers originate from patent US7807845B2.
